# procedure text: soluble on expression in E. coli; label from the status in PepcDB or PDB records
measured property: soluble on expression in E. coli

sequence content: GMHSAALLQKVDELPRLPKAIAELLDVVNNEDSTVKAVSEKLSHDPVLSARVLRLANSARFGCSREVGTIDDAVVRLGMQTLRTLVIASAVVGAVPKVEGFDLADFWGNTFEVAIICQELAKRLGTLPEEAFTCGILHSIGELLIVNGDPAVAATISAAVADGADRNLMEKELLGYDNAEIGALLAQSWKFTPHLVKGIQFQNHPKSAEPYSKLAGMLAMAKQIAADWDKIPDDERTSWLAQINILAGIKVDLGGLAEKLAKMHGQGMEMGKQLA
measured result: soluble

sequence content: MIILDNSIQTKKRTDSLSKLITVNTLGPEGTSSEYAAKHFISNFTLLQGLNSKLSLHDTFESCIERTLQSPLEYTIVPHAYDGIKHFYMRPDLQLLQIFRCDTPMYGLAVRPDFEFRDDMLDTSVIVSHPSPINLIKYFTRKDVRFKLVNSTSQAARKVKEGLYDIALTNELARQKYGLTFVKTFKSIPMSWSLFGKGDVDDENLEHHHHHH
measured result: not soluble

sequence content: MTSVTSSATSSPEPPTKVAAAMQTTTGETSISNETSFNASRETSLTALGFLDYLDEEQRAALLGEGLDISTLTWANQVTALRVLESLFNEHAYELVSAVIQHVAQEPGDNPHHFLKFSPEPSTENSWELTLDGPTVGLKVTFDPDGQITFKDAHLGLSPAEVVSVTEALDTSYSESQIKKAAEQLVGSLNPTQQAALQGSGLRGAQLTEEQKTLFLKMTSNWIDLANGDSGSEQQEEIADTFSDTYIIWNEQKDGSAFFQMKGPELDFSYKESVPENAELSARGVPNIQTSFQSPLEHHHHHH
measured result: soluble

sequence content: MCIGVPVQVISPGQWFAKCRDRHGELIDVDIRLVAPPLAGAWLLTFGGAARREMDEAEAAEVLAALDSLEQAMLTQSDPLTGFADLLSRTPELPEHLKK
measured result: not soluble

sequence content: MSLANLKVNLYGMEFLNPIMTAAGPGAKDGALCQEAAKGGAGAICTKTISVLPADVPRPCMAKTNSGFLNTELWSELPKEQWIEEEYKKVKETGLPVIVSMGYSAEQIAEVAPLVKPYADAVELSTHYVGTDVAPIVNALKAAKAVLDVPVFMKMSPHTDIQTIAKAVEEAGADGLVMINSFGPCMAIDVNTGYPIMGSKAGYGWLSGAPIRPLAIRCIYEASQVVNIPIIGVGGITCGKDVAEMMMAGASAVQVCTEAILKGPSIYGKIAKELNEFLDENGYADVNEIKGLTHKKMAARGFRTHSVAPVVDEGHHHHHH
measured result: soluble

Request: Requested read-out: soluble on expression in E. coli. Entry: `TGCSVTATRAEEWSDGFNVTYSVSGSSAWTVNLALNGSQTIQASWNANVTGSGSTRTVTPNGSGNTFGVTVMKNGSSTTPAATCAGS`
Response: soluble

Request: Field request: soluble on expression in E. coli | item: `MSLTQPFQLPHFYMPYPARLNPHLDEARAHSTRWARGMGMLEGSGIWEQSDLDAHDYGLLCAYTHPDCDGPALSLITDWYVWVFFFDDHFLETFKRTQDREGGKAYLDRLPLFMPLDLSAPVPEPENPVEAGLADLWARTVPAMSADWRKRFAVSTEHLLNESLWELSNINEGRIANPVEYIEMRRKVGGAPWSAGLVEYATAEVPAAVAGSRPLRVLMETFSDGVHLRNDLFSYQREVEEEGELSNGVLVLETFFGCTTQEAAETVNDILTSRLHQFEHTALTEVPALALEKGLTPPEVAAVAAYARGLQDWQSGGHEWHLRSSRYMNEEGHHHHHH`
Response: soluble

---

# procedure text: soluble on expression in E. coli; label from the status in PepcDB or PDB records
measured property: soluble on expression in E. coli

A selection of reference data follows.
sequence content: MGSDKIHHHHHHMIRINMFSQADSVAGQGVGAAYLELIRLLRTHLVDDFYVTINKYGRSDLTHYHTINPTYFANSFSPARGRKIGYVHFLPDTLERSIKLPGVAKKVFYQYVIDFYKRMDQIVVVNPIFIDKLTEYGLDRNKIRYIPNFVAKSEFYEQTQAKKNATRQELGIPQDKFVVFGDGQVQARKGVDDFAKLAEANPDYQFIWAGGFSFGKITDGYDHFKQLVENPPKNLTFTGIIDREKLVDYLNMADLFLLPSFDELFPMSVLEAFSCGTPVLLRDLDLYRAIIDGYYLAGKDSAEMNEQLRFAATHPEVLARQQELSRKASQQYSEDHLAEIWRDFYQEQYQLGRELGQISYE
soluble on expression in E. coli: not soluble

sequence content: MAICESGALPSHVGALSYSGGAASSFFGRRNADGLNDKWLALRDAFRAAGGDLLAIEDARSAALDFVIHVNAHRLRHDVPAFVILAESEFIHPPNVDWRMLQQYKGIFTWMPDLVRRGIGTEICLAHPLGAGVVDGYQERPQLLVMIASNKALPVWRPAVDLYRERVRAIRWFEKHAPQAFALYGHDWDKSPRLPTPLGGIVHGVEFVLPWRLQWFPSWKGVIPSKREVLRHARFSLCYENVRGLRGYITEKIFDAFCAGNVPVYWGAEDITDYIPADCFIDRRAFGDYADLYRYLTSMPETRYIQYQQAICDFLVSPAAKRFSSEIFATTIVGKVLDTLGRRDE
soluble on expression in E. coli: not soluble

sequence content: MGSDKIHHHHHHMRVEEAKYLAKKIMMAGEIPLLVGHFGVGKTDIARDIARETERKLIILVLSQMEPGDLIGLPARTEEKTVFLKPDWWPESGDTILFLDEINRAHRSVRNAIMQLLVDRRIHNHILPEGTWIMAAMNPPEEEYDQADLITDPAFISRFFILEVNPDVSEWLEWAEKNNVSKEVRDFIRDYPEFLFSERSLSLRTSLKPSPRSWYKLSNVLKTLTDDEKEKYGYVIAAGIVGPEAAKAFYDSFFQRVKIPSVESVLFDGKIENLEDIHAANTLVLRIVDFLSKVDVRTLERHLDDVSKNLVRLSEIMPKESFYGVLRFLVDEAQKEGEKSWIFDKILEKMLEREDMRKMVNEL
soluble on expression in E. coli: not soluble

sequence content: MSLRLGIILHGVTGRMGYNQHLVRSVLAIRDQGGIMLKSGGRLEIDPIIVGRNRDKIEQLAKRHDIARWSTDLDAALADPNDQIFFDAGTTLMRAELIGRALDAGKHVYCEKPVSDDLRTAVKLARKARASGLKHGVVQDKLFLPGLQKLALLRDSGFFGKILSVRGEFGYWVFEGDWGVPAQRPSWNYRKKDGGGIILDMLCHWRYVLDNLFGEVKAVSCLGATHISSRIDEQGRAYDCDTDDAAYATFELEGGVIAQINSSWTVRVRRDDLVTFQVDGTHGSAVAGLTKCWTQHRVNTPKPVWNPDQPQTIDFYETWDEVPDTQAFDNGFKAQWEMFLRHVAEDSPWPYGLEAGAKGVQLAELGLKSWAERRWLDVPELEEGHHHHHH
soluble on expression in E. coli: soluble

sequence content: MFLTWENLFLTNQSRRRLKLLVVERSYNNVGNFLKEYFGGFFEIVNFDDLRLTMVDMVSLSSEYDVIVTDMILEQTTDSEILFFNQMAPSVVANRLTDM
soluble on expression in E. coli: not soluble

Request: May I ask what soluble on expression in E. coli has been recorded for `MTDQQRRVVFMATSLLLDYPDDRWEDIIDAVSVQIDDLPKNTRQQFVQFLTAVRVMGRRGMEQHYVECFDQRRRCSLFLSYYAVGDTRQRGAAILAFQESLETLGFFLEREELPDHLCVVLEVAAKAEGLAHHVATDMLAAHRDGIEVLRVALEHSDSPYSRLVAAVCSALPDIDEETRKNFVDLIRSGPPAELIGIESPLPFPTATNV` ?
Response: not soluble

Request: Entry `MGSDKIHHHHHHMENQLLTLKNNELTVQINPKGAELTHVIENKNKFDFIWNGSEWPKHAPILFPAIGRSTDDEYLLNQKIYPMQQHGFASDYFFEIIDQKEDQISLSLKDNEETYQSYPFQFELKVTYQLVSKKLKIQFEIKNLSVKKLTFALGFHPAFNLSANFEDYQISFETKDKTLKQFEIVKNPFPYRSGKIIEINKAVSNFPLEREFFEKGLVIFDNKIEEVKLFSQETDYQMTMKMADFPYLCLWTKEDENLSYLCIEPFQGLPDILNQKQELLQKEGNISLKSNESKTYEVELTFNSNKGES` has what soluble on expression in E. coli?
Response: not soluble

Request: May I ask what soluble on expression in E. coli has been recorded for `MGMIIMVGDGMGPAYTSAYRYFQDNPDTEEIEQTVFDRLLVGMASTYPARESGYVTDSAASATALATGFKSYNGAIAVDINKRPLTTIMQMAKARGMSTGVAVTAQVNHATPAAFLTHNESRKNYEAIAADMLKSDADVILGGGRKYFSEALVSQFSAKGYQHITELAQLDSITQPKVLGLFAEVQLPWVIDDTDANTLSKLTQKSLDLLSQNEKGFVLLVEGSLIDWAGHNNDIATAMAEMQGFANAIEVVEQYIRQHPDTLLVVTADHNTGGLSIGANGEYQWDTKLPKGISASPASIATHAIAADDWQAGVNQQLGFDVNSTELQQLTNARMQGKSTLEVALKKIIDTRSYTGWTTSGHTGVDVQVFAMGPAADLFKGNQDNTHIAEKMMSLLPKVN` ?
Response: soluble

Request: Quick one: soluble on expression in E. coli for `MSVKKLENGQYQVDVSFGFDPITGERIRTRPVASTRKEALELEAKLRREFQEERARKSRSVSFPTLISIYLASCEIDSKPNYYQNQKYIINKHISDYFLKSDIQKITHREITDFRKHLMETGLSNKSVNNIMTSLSKIFDTAVHEEILKRNPCDNVKRLPLTRKKMKFWRPEEFKKFISLIPQDQLLFKTFYTVAFLTGLRCGEMLALQWKDIDKILLEIDVHKSCTWLDGQFVVTTPKTKNSIRRVSINKKLLKLLERWKEAQEELFNELGIRHSHDTYIFQYKDTPSRKDIFSRKIKYFCKDSDLTPIRLHDFRHSHVALLIHQGEDYITIKERLGHGSVKTTIDVYGHLYPNKQKEMADKLDDLL` ?
Response: not soluble

Request: What does the record list as soluble on expression in E. coli for `MAHHHHHHMGTLEAQTQGPGSMTAASSSAPTLGIIRLEHAKGLDLPAYETAGSAGMDLRAAVAEDRQIVLLPGRRTLVPTGLILEIPQGYEVQIRPRSGLAFKNGITCLNTPGTIDSDYRGEVKVLLINLGDDDFRIERGMRIAQAVFAPVIQPKIEERAKISETARGAGGFGSTGTA` ?
Response: soluble

Data provenance is the DeepSol protein solubility set.
